Data provenance: the supplement of paper PMC10567573

B1: C20orf112 (parent)
chain: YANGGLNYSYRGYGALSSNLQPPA

# Variants of: B1
# assay-method-text: protein stability index of a GFP-peptide fusion (GPS, HEK-293T) (PSI 1-6); higher = more stable;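 also: lentivirally expressed fusions sorted by FACS into six bins by GFP to DsRed ratio, PSI derived from sequencing read proportions per bin multiplied by bin number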
# condition-description: c terminus: a fixed tail appended
Quick rule for you: protein stability index at 2 or higher means yes (1), lower means no (0).

sequence-data: YANGGLNYSYRGYGALQSNLQPPA [S17Q]
group-label: no (0)
//
sequence-data: YANGGLNYSHRGYGALSSNLQPPA [Y10H]
group-label: yes (1)
//
sequence-data: YANYGLNYSYRGYGALSSNLQPPA [G4Y]
group-label: yes (1)
//
sequence-data: YANGGLNYSYRGYGALSSNLQVPA [P22V]
group-label: no (0)
//
sequence-data: YANGGLNYSYRGYGALYSNLQPPA [S17Y]
group-label: yes (1)
//
sequence-data: YANGGLNYSYRGYGALSSNLQPYA [P23Y]
group-label: no (0)
